Quick list: pIC50 per entry.
- SYSTEM_TESTED: PI3K alpha (PIK3CA) (Homo sapiens (Human), UniProt P42336)
- Sequence (P42336 whole entry, species assumed): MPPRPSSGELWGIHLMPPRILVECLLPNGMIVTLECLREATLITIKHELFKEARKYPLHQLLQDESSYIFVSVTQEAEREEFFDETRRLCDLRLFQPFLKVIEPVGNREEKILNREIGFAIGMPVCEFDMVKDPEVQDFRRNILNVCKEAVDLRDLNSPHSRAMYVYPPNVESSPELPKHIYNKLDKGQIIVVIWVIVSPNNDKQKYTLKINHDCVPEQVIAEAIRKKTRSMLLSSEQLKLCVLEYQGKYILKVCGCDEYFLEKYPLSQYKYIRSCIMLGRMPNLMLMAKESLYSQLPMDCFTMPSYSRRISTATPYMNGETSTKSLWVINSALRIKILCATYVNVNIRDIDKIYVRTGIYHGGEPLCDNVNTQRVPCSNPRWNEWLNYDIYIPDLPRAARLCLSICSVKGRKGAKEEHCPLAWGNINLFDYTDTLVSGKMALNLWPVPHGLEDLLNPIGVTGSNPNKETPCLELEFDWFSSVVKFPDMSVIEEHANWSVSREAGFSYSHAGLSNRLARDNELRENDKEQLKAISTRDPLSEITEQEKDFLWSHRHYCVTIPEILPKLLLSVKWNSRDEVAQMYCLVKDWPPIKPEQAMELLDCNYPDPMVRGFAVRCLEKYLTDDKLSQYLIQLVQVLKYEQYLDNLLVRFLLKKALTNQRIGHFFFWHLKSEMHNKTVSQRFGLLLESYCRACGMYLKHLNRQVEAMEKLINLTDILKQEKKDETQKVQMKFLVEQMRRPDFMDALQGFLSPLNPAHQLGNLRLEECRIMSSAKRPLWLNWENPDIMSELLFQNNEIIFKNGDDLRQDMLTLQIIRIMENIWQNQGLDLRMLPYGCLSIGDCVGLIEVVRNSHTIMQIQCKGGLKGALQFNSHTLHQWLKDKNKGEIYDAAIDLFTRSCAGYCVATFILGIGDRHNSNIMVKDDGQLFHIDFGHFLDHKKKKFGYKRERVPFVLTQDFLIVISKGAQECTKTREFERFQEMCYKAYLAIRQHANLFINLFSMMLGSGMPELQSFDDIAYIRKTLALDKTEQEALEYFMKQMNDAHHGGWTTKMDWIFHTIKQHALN
pIC50 (log units): -log10 of the concentration in mol/L.

| COMPOUND | pIC50 |
| --- | --- |
| NCC(=O)Nc1cc(C(F)(F)F)c(-c2cc(N3CCOCC3)nc(N3CCOCC3)n2)cn1 [Compound 9] | 9.08 |

Here's the next entry for you.
pIC50 lookup needed for CCNc1cc(C(F)(F)F)c(-c2cc(N3CCOCC3)nc(N3CCOCC3)n2)cn1 [Compound 5] , thanks.
8.00

###

- SYSTEM_TESTED: MTOR (Mammalian target of rapamycin) (Homo sapiens (Human), UniProt P42345)
READOUT: pIC50
pIC50 (log units): -log10 of the concentration in mol/L.

pIC50 lookup needed for NCC(=O)Nc1cc(C(F)(F)F)c(-c2cc(N3CCOCC3)nc(N3CCOCC3)n2)cn1 [Compound 9] , thanks.
7.59

###

Quick list: IC50 per entry.
- System: MCF-7 human breast cancer cell lines
- ASSAY_PROCEDURE: MCF-7 cell proliferation assay (CCK-8/WST-8, 72 hours)
- Type: cell-based
- MEASUREMENT_SETUP: MCF7, WST-8
Kindly answer with a numeric value in nM, unit omitted.

| MOLECULE | IC50 (nM) |
| --- | --- |
| Nc1cc(C(F)(F)F)c(-c2cc(N3CCOCC3)nc(N3CCOCC3)n2)cn1 [Compound 1, reference compound] | 186 |

Here's the next entry for you.
IC50 lookup needed for CC(=O)Nc1cc(C(F)(F)F)c(-c2cc(N3CCOCC3)nc(N3CCOCC3)n2)cn1 [Compound 2] , thanks.
82.4
